All values here come from patent US20050164933A1.

- assayed.system: T1, GST-ZO-1 PDZ domain 2 fusion protein (human)
- T1 chain: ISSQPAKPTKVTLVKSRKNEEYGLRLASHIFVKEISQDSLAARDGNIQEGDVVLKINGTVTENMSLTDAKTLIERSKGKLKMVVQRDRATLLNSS
- method: G3 assay titration, immobilised GST-PDZ
pEC50: −log10 of the molar value. No end group written: not given here. *: point of attachment. Biotin = O=C1N[C@H]2[C@H](CS[C@H]2CCCCC(=O)*)N1
property: pEC50

> print(dat)
                                     binder  assay.result
1  Biotin-YGRKKRRQRRRARSDRTIIA [Peptide #1830 (biotin-…)]        > 7.70
2  Biotin-YGRKKRRQRRRSRTDRKYQI [Peptide #1839 (biotin-…)]        > 7.70
3  Biotin-YGRKKRRQRRRARGDRYRIV [Peptide #1845 (biotin-…)]        > 7.00
4  Biotin-YGRKKRRQRRRARSDRTIWA [Peptide #1829 (biotin-…)]          8.15
5  Biotin-YGRKKRRQRRRARGTRLVWV [Peptide #1844 (biotin-…)]        > 7.70
6  Biotin-YGRKKRRQRRRSRTDRKYWA [Peptide #1832 (biotin-…)]        > 7.70
7  Biotin-YGRKKRRQRRRQDERRLIVL [Peptide #1842 (biotin-…)]          7.46
